Molecular target: BaF3-ETV6-NTRK2 (Homo sapiens)
Construct: fused on or other part: P41212 (Transcription factor ETV6)
Assay: Cell proliferation inhibition (CCK-8), BaF3-ETV6-NTRK2 stable strain
Conditions: BaF3-ETV6-NTRK2, 72 hours
Measure name: log10(IC50) (log10 of the value in nM)

{"columns": ["Compound", "log10(IC50)"],
 "data": [
  ["Fc1cc(F)cc(Nc2ccc3[nH]nc(C#Cc4ccccn4)c3c2)c1 [DYX-129]", 3.45],
  ["Fc1cc(F)cc(Cc2ccc3[nH]nc(/C=C/c4ccccc4)c3c2)c1 [DYX-07]", 2.99],
  ["O=S(=O)(c1cc(F)cc(F)c1)c1ccc2[nH]nc(C#Cc3ccccn3)c2c1 [DYX-108]", 2.96],
  ["N#Cc1cc(F)cc(CNc2ccc3[nH]nc(/C=C/c4ccccn4)c3c2)c1 [DYX-402]", 1.73],
  ["Fc1cccc(Cc2ccc3[nH]nc(/C=C/c4ccccn4)c3c2)c1F [DYX-082]", 2.39],
  ["Cc1cccc(Cc2ccc3[nH]nc(/C=C/c4ccccn4)c3c2)c1 [DYX-137X]", 3.57],
  ["O=C(Nc1ccc2[nH]nc(/C=C/c3ccccn3)c2c1)c1cc(F)cc(F)c1 [DYX-164]", 3.41],
  ["Fc1cc(F)cc(CCc2ccc3[nH]nc(/C=C/c4ccccn4)c3c2)c1 [DYX-180]", 2.84],
  ["Fc1cc(F)cc(Oc2ccc3[nH]nc(C#Cc4ccccn4)c3c2)c1 [DYX-092]", 3.42],
  ["Fc1cccc(Cc2ccc3[nH]nc(C#Cc4ccccn4)c3c2)c1F [DYX-074]", 3.45],
  ["O=S(=O)(Nc1ccc2[nH]nc(/C=C/c3ccccn3)c2c1)c1cc(F)cc(F)c1 [DYX-165]", 1.69],
  ["Fc1cccc(Cc2ccc3[nH]nc(/C=C/c4ccccn4)c3c2)c1 [DYX-038]", 2.53],
  ["O=S(=O)(Nc1ccc2[nH]nc(/C=C/c3ccccn3)c2c1)c1cncc(F)c1 [CHW-9]", 2.13],
  ["CCn1cc(/C=C/c2n[nH]c3ccc(NS(=O)(=O)c4cc(F)cc(F)c4)cc23)cn1 [Example D5218]", 1.28],
  ["Fc1ccccc1Cc1ccc2[nH]nc(C#Cc3ccccn3)c2c1 [DYX-021]", 3.49],
  ["COc1ccc(F)cc1Cc1ccc2[nH]nc(/C=C/c3ccccn3)c2c1 [Example D09F01]", 1.75],
  ["Fc1ccc(F)c(CNc2ccc3[nH]nc(/C=C/c4ccccn4)c3c2)c1 [DYX-216A]", 0.94],
  ["Cc1cc(F)cc(CNc2ccc3[nH]nc(/C=C/c4ccccn4)c3c2)c1 [DYX-401]", 2.65],
  ["Cc1ccccc1/C=C/c1n[nH]c2ccc(Cc3cc(F)cc(F)c3)cc12 [Example D01F08]", 2.60],
  ["N#Cc1cccc(Cc2ccc3[nH]nc(/C=C/c4ccccn4)c3c2)c1 [DYX-136X]", 3.03],
  ["Cn1cc(/C=C/c2n[nH]c3ccc(NS(=O)(=O)c4cc(F)cc(F)c4)cc23)cn1 [Example D5217]", 2.23]
]}

====

Biological target: BaF3-ETV6-NTRK3 (Homo sapiens)
Construct: fused on or other part: P41212 (Transcription factor ETV6)
Sequence (Q16288 whole entry, the tested form may be a part): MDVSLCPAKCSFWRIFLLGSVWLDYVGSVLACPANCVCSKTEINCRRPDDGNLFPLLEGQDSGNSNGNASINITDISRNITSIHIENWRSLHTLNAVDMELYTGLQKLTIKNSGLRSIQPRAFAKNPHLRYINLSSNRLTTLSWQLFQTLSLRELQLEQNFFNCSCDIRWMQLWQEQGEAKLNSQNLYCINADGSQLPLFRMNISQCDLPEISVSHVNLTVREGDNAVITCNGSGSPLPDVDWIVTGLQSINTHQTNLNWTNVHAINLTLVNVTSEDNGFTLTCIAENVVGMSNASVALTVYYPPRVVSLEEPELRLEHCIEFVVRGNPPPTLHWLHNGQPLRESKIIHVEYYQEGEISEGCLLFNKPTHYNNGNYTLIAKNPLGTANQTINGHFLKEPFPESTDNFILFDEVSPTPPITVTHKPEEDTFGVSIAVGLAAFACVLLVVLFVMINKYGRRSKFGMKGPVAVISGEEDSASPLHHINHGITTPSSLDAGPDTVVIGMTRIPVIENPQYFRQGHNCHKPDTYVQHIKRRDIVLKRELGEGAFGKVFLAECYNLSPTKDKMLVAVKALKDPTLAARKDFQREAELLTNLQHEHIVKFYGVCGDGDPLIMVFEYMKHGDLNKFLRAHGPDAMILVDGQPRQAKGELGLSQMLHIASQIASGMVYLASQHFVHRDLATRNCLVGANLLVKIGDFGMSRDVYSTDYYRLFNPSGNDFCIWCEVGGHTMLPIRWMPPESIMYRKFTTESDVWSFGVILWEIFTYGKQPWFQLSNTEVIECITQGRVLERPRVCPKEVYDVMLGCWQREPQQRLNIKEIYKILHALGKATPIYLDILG
Assay: Cell proliferation inhibition (CCK-8), BaF3-ETV6-NTRK3 stable strain
Conditions: BaF3-ETV6-NTRK3, 72 hours
pIC50: −log10 of the molar value.

{"columns": ["Molecule", "Reported relation", "pIC50"],
 "data": [
  ["Cc1cccc(Cc2ccc3[nH]nc(/C=C/c4ccccn4)c3c2)c1 [DYX-137X]", "=", 5.50],
  ["Cn1cc(/C=C/c2n[nH]c3ccc(NS(=O)(=O)c4cc(F)cc(F)c4)cc23)cn1", "=", 6.90],
  ["Fc1cc(F)cc(Nc2ccc3[nH]nc(C#Cc4ccccn4)c3c2)c1", "=", 5.50],
  ["Clc1cccc(Cc2ccc3[nH]nc(C#Cc4ccccn4)c3c2)c1 [DYX-134Q]", "=", 5.58],
  ["Fc1ccc(Cc2ccc3[nH]nc(/C=C/c4ccccn4)c3c2)cc1", "=", 5.08],
  ["FC(F)(F)c1cccc(Cc2ccc3[nH]nc(/C=C/c4ccccn4)c3c2)c1 [DYX-138X]", "<", 5.00]
]}

====

Target: BaF3-ETV6-NTRK2 (Homo sapiens, UniProt Q16620)
Construct: fused on or other part: P41212 (Transcription factor ETV6)
Sequence (Q16620 538-822 limits assumed): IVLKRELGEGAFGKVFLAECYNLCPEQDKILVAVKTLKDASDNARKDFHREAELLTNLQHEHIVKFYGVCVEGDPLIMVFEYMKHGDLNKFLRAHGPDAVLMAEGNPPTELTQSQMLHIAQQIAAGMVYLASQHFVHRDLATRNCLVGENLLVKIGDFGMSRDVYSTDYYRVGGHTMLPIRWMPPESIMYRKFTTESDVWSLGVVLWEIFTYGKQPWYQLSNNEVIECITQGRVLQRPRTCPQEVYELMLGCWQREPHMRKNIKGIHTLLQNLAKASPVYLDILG
Assay: Cell proliferation inhibition (CCK-8), BaF3-ETV6-NTRK2 stable strain
Conditions: BaF3-ETV6-NTRK2, 72 hours
Measure name: IC50 (µM)

{"columns": ["Compound", "Study target", "Measure name", "Unit info", "Reported relation", "Test value"],
 "data": [
  ["C[C@@H](Nc1ccc2[nH]nc(/C=C/c3cnn(CCO)c3)c2c1)c1cccc(F)c1 [DYX-335]", "BaF3-ETV6-NTRK2 (Homo sapiens, UniProt Q16620)", "IC50", "µM", "=", 0.0107],
  ["Fc1cccc(Cc2ccc3[nH]nc(C#Cc4ccccn4)c3c2)c1 [DYX-025]", "BaF3-ETV6-NTRK2 (Homo sapiens, UniProt Q16620)", "IC50", "µM", "=", 2.56],
  ["O=S(=O)(Nc1ccc2[nH]nc(/C=C/c3cnn(C4CC4)c3)c2c1)c1cc(F)cc(F)c1 [CHW-4]", "BaF3-ETV6-NTRK2 (Homo sapiens, UniProt Q16620)", "IC50", "µM", "=", 0.0082],
  ["Cc1cccc(/C=C/c2n[nH]c3ccc(Cc4cc(F)cc(F)c4)cc23)n1 [DYX-09]", "BaF3-ETV6-NTRK2 (Homo sapiens, UniProt Q16620)", "IC50", "µM", "=", 0.0984],
  ["N#CCn1cc(/C=C/c2n[nH]c3ccc(NS(=O)(=O)c4cc(F)cc(F)c4)cc23)cn1 [CHW-1]", "BaF3-ETV6-NTRK2 (Homo sapiens, UniProt Q16620)", "IC50", "µM", "=", 0.0431],
  ["Fc1cc(Cl)cc(Cc2ccc3[nH]nc(/C=C/c4ccccn4)c3c2)c1 [Example D02F01]", "BaF3-ETV6-NTRK2 (Homo sapiens, UniProt Q16620)", "IC50", "µM", "=", 0.362],
  ["C(=C\\c1n[nH]c2ccc(Cc3ccccc3)cc12)/c1ccccn1 [DYX-048]", "BaF3-ETV6-NTRK2 (Homo sapiens, UniProt Q16620)", "IC50", "µM", "=", 0.168],
  ["C[C@@H](Nc1ccc2[nH]nc(/C=C/C(=O)N3CC[C@H](O)C3)c2c1)c1cc(F)cc(F)c1 [DYX-303]", "BaF3-ETV6-NTRK2 (Homo sapiens, UniProt Q16620)", "IC50", "µM", "=", 0.02],
  ["Cc1cccc(Cc2ccc3[nH]nc(C#Cc4ccccn4)c3c2)c1 [DYX-137Q]", "BaF3-ETV6-NTRK2 (Homo sapiens, UniProt Q16620)", "IC50", "µM", ">", 10],
  ["Fc1ccc(F)c(Cc2ccc3[nH]nc(/C=C/c4ccccn4)c3c2)c1 [DYX-054]", "BaF3-ETV6-NTRK2 (Homo sapiens, UniProt Q16620)", "IC50", "µM", "=", 0.329],
  ["COc1cc(F)cc(Cc2ccc3[nH]nc(/C=C/c4ccccn4)c3c2)c1 [Example D05F01]", "BaF3-ETV6-NTRK2 (Homo sapiens, UniProt Q16620)", "IC50", "µM", "=", 0.462],
  ["C[C@@H](Nc1ccc2[nH]nc(/C=C/c3cccnc3)c2c1)c1cc(F)cc(F)c1 [DYX-409]", "BaF3-ETV6-NTRK2 (Homo sapiens, UniProt Q16620)", "IC50", "µM", "=", 0.0369],
  ["FC(F)(F)c1cccc(Cc2ccc3[nH]nc(/C=C/c4ccccn4)c3c2)c1 [DYX-138X]", "BaF3-ETV6-NTRK2 (Homo sapiens, UniProt Q16620)", "IC50", "µM", "=", 4.08],
  ["CN1CCN(C(=O)/C=C/c2n[nH]c3ccc(NCc4cc(F)cc(F)c4)cc23)CC1 [DYX-226]", "BaF3-ETV6-NTRK2 (Homo sapiens, UniProt Q16620)", "IC50", "µM", "=", 0.0481],
  ["Fc1cc(F)cc(Cc2ccc3[nH]nc(/C=C/c4ccccc4C(F)(F)F)c3c2)c1 [Example D01F11]", "BaF3-ETV6-NTRK2 (Homo sapiens, UniProt Q16620)", "IC50", "µM", "=", 0.159],
  ["NC(=O)/C=C/c1n[nH]c2ccc(NCc3cc(F)cc(F)c3)cc12 [DYX-223]", "BaF3-ETV6-NTRK2 (Homo sapiens, UniProt Q16620)", "IC50", "µM", "=", 0.0243],
  ["Fc1cc(F)cc(Sc2ccc3[nH]nc(C#Cc4ccccn4)c3c2)c1 [DYX-086]", "BaF3-ETV6-NTRK2 (Homo sapiens, UniProt Q16620)", "IC50", "µM", "=", 2.6],
  ["C[C@@H](Nc1ccc2[nH]nc(/C=C/c3ccccn3)c2n1)c1cc(F)cc(F)c1 [DYX-332]", "BaF3-ETV6-NTRK2 (Homo sapiens, UniProt Q16620)", "IC50", "µM", "=", 0.146]
]}
